These data points were gathered from patent US20220315624A1.

System: E. faecium MMX 708 VSE
Assay: MIC broth microdilution
Assay type: cell-based
Conditions: Enterococcus faecium, MMX708VSE; E. faecium MMX 708 VSE; CAMHB; read-out: MIC
MEASURE: MIC (µg/mL)
Numbers only, in µg/mL.

(Q) Reported MIC for E. faecium MMX 708 VSE, given C=C(NC(=O)c1csc(C2=N[C@@H]3c4csc(n4)[C@H]4NC(=O)c5csc(n5)[C@H]([C@](C)(O)[C@@H](C)O)NC(=O)C5CSC(=N5)/C(=C/C)NC(=O)[C@H]([C@@H](C)O)NC(=O)c5csc(n5)[C@]3(CC2)NC(=O)[C@H](C)NC(=O)C(=C)NC(=O)[C@H](C)NC(=O)[C@H]([C@@H](C)CC)N[C@@H]2C=Cc3c([C@H](C)O)cc(nc3[C@H]2O)C(=O)O[C@@H]4C)n1)C(=O)NC(=CNC(=O)c1cccc(/C=N/OC2O[C@H](CO)[C@@H](O)[C@H](O)[C@H]2O)c1)C(N)=O (stereo partly shown) ?
(A) 16
